src = patent US7205295B2

# tested on: PI3Kγ (p101/p110γ protein) (Homo sapiens)
# Construct: HA
# Sequence (P48736 whole entry, species assumed): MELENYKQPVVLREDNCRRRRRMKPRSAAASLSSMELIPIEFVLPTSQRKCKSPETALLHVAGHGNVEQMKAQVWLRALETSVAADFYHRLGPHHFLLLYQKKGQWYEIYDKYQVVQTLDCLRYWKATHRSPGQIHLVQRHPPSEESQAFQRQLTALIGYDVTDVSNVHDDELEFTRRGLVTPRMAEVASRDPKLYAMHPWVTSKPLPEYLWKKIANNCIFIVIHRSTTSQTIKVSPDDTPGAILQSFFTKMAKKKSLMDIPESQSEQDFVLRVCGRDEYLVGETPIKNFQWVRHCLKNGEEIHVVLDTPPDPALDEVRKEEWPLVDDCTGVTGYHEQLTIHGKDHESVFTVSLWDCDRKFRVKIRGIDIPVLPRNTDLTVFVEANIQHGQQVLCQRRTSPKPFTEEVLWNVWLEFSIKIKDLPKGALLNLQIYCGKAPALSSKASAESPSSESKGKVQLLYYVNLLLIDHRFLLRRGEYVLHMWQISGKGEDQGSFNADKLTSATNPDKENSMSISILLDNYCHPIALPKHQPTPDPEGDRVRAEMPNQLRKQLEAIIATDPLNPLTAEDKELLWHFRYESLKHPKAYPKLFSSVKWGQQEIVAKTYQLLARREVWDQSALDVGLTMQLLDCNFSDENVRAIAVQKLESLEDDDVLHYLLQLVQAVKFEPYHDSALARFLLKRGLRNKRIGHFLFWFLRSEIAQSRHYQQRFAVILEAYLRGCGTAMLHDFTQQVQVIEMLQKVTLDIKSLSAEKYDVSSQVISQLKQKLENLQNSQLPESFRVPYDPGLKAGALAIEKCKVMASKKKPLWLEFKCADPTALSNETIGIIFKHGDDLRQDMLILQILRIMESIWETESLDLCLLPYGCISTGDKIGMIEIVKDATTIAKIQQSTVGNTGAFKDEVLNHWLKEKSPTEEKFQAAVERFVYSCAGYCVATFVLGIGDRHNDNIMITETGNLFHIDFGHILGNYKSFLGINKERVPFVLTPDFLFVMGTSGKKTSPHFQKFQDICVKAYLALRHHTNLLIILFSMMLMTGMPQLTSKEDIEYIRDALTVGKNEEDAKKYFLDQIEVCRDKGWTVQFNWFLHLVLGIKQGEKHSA
# Sequence (Q8WYR1 whole entry partner, species assumed): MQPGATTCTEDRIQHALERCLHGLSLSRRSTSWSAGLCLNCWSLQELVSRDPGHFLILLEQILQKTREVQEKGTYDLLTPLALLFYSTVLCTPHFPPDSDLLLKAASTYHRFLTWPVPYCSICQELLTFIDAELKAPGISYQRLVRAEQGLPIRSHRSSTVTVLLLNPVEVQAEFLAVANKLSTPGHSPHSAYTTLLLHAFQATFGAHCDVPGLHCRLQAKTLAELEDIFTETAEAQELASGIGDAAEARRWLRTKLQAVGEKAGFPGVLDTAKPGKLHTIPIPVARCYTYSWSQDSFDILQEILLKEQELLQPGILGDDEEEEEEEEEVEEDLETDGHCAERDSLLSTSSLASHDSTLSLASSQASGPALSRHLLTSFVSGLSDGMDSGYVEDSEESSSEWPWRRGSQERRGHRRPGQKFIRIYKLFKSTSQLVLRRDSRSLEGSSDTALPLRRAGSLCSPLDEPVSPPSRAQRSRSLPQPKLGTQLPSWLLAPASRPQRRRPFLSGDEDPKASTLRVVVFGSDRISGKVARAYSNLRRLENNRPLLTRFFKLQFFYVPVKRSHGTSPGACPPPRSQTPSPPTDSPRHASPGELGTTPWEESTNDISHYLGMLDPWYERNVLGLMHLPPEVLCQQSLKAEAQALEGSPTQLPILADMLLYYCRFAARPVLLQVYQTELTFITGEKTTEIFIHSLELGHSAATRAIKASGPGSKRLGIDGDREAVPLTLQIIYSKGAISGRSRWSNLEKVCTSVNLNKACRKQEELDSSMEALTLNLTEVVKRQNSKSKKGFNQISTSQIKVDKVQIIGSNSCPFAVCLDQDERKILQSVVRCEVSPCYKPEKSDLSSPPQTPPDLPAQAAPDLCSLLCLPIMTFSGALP
# assay method text: PI3Kγ In Vitro Kinase Assay
# experimental setup: purified recombinant p101/p110γ with G protein β1/γ2 subunits; 20 μM ATP, 25 μM PIP2; 20 minutes at room temperature
Overview of recorded IC50 for various compounds

compound=CN(C)S(=O)(=O)c1ccc(CN2C(=O)COc3ccc(/C=C4\SC(=S)NC4=O)cc32)cc1 tested_on="PI3Kγ (p101/p110γ protein) (Homo sapiens)" metric_name=IC50 result="4 nM"
compound=COc1cc(C=C2SC(=S)NC2=O)cc2c1OCC(=O)N2Cc1ccccc1 tested_on="PI3Kγ (p101/p110γ protein) (Homo sapiens)" metric_name=IC50 result="96 nM"
compound=COc1ccc(CN2C(=O)COc3c(F)cc(C=C4SC(=S)NC4=O)cc32)cc1C(F)(F)F tested_on="PI3Kγ (p101/p110γ protein) (Homo sapiens)" metric_name=IC50 result="6 nM"
compound=O=C1NC(=S)SC1=Cc1ccc2c(c1)N(Cc1ccccc1SC(F)(F)F)C(=O)CO2 tested_on="PI3Kγ (p101/p110γ protein) (Homo sapiens)" metric_name=IC50 result="8 nM"
compound=CC(C)(C)c1cc(CN2C(=O)COc3ccc(C=C4OC(=S)NC4=O)cc32)cc(C(C)(C)C)n1 tested_on="PI3Kγ (p101/p110γ protein) (Homo sapiens)" metric_name=IC50 result="70 nM"

Q. Using the record for CC(C)(C)c1cc(C(C)(C)C)nc(CN2C(=O)COc3c(F)cc(CC4SC(=S)NC4=O)cc32)n1 (stereo not shown) , state its measured IC50.
A. 1240 nM

Q. Specify reported IC50 for the compound shown: C/C(=C1/SC(=S)NC1=O)c1ccc2c(c1)N(Cc1ccccc1)C(=O)CO2
A. 1610 nM

Q. Answer with reported IC50 of CC(C)(C)CCN1C(=O)COc2ccc(C=C3SC(=S)NC3=O)cc21
A. 10 nM

Q. Provide measured IC50 value, entry: Cc1ccc(C)c(CN2C(=O)COc3ccc(C=C4SC(=S)NC4=O)cc32)c1
A. 18 nM

Q. Input CN1CCN(Cc2ccc(CN3C(=O)COc4ccc(C=C5SC(=O)NC5=O)cc43)cc2)CC1 , output reported IC50.
A. 3 nM

Q. Provide measured IC50 value, entry: CC(C)(C)c1cc(CO)cc(CN2C(=O)COc3ccc(C=C4SC(=S)NC4=O)cc32)c1
A. 22 nM

Q. Please indicate IC50 recorded for Cc1cc(CN2C(=O)COc3ccc(C=C4SC(=S)NC4=O)cc32)c(C(F)(F)F)o1
A. 33 nM

Q. Determine its reported IC50: CC(=O)Oc1ccc(CN2C(=O)COc3ccc(C=C4SC(=S)NC4=O)cc32)cc1
A. 21 nM

Q. Give IC50 for O=C1NC(=S)SC1=Cc1ccc2c(c1)N(Cc1cccc(OC(F)F)c1)C(=O)CO2
A. 13 nM

Q. Entry COC(=O)c1cc(CN2C(=O)COc3ccc(C=C4SC(=S)NC4=O)cc32)cc(C(C)(C)C)c1 needs its IC50 filled in; supply it.
A. 29 nM

Q. Note down IC50 recorded for O=C1NC(=S)SC1=Cc1ccc2c(c1)N(Cc1cccc(C(=O)O)c1)C(=O)CO2
A. 9 nM
